Taken from PubChem BioAssay (NCATS).

runDescription: BET inhibitor-based combinations targeting novel dependencies in MECOM-rearranged (r) AML: HNT-34 cell line (AID 2202234); further: nearly all actives have a fitted effect of over 35% in size
conditionDescription: HNT-34 AML viability, CellTiter-Glo luminescence, 48 h; series mostly up to 46 µM
Records with an inconclusive call do not appear. Calls of active or inactive are those of the source. The call rests on the fitted dose curve; in most records, active means well fitted inhibition curve with a large enough effect; inconclusive means small, poorly fitted or top-dose-only effect; inactive means no such curve, though single readings can be large or run the other way.
Answer with one of the outcomes label 1 = active, label 0 = inactive

Worked cases, answers included:
COc1cc(-c2cn(C)c(=O)c3cnccc23)c(OC)cc1CN(C)C    label 0
Cn1c(-c2ccccc2C(F)(F)F)nnc1C12CCC(c3noc(C4CC(F)(F)C4)n3)(CC1)CC2    label 0
CCS(=O)(=O)N1CCC(C(C)n2c(C)c(C(=O)NCc3c(OC)cc(C)[nH]c3=O)c3ccccc32)CC1 (stereo not drawn)    label 0
Nc1nccc(-c2c(-c3ccc(F)cc3)ncn2C2CCCCC2)n1    label 1
COc1cc2c(cc1OC(C)C)[C@H](c1ccc(Cl)cc1)N(c1ccc(N(C)CC3CCC(N4CCN(C)C(=O)C4)CC3)cc1)C(=O)C2 (stereo partly drawn)    label 1
CNC1CCCN(c2c(F)cc3c(=O)c(C(=O)O)cn(C4CC4)c3c2OC)C1 (stereo not drawn)    label 0

Record request — test call for Cn1c(=O)c2c(ncn2CC2OCCO2)n(C)c1=O
label 0

// repeat for CCN(CC)CCNC(=O)c1c(C)[nH]c(/C=C2/C(=O)Nc3ccc(-c4csc(-c5ccccc5)n4)cc32)c1C and report
label 1

// repeat for Nc1nc2c(c(=O)[nH]1)N1CN(c3ccc(C(=O)N[C@@H](CCC(=O)O)C(=O)O)cc3)CC1CN2 (stereo partly drawn) and report
label 1

// repeat for C=CCNc1c(O)cc2c(O)c1C[C@@H](C)C[C@H](OC)[C@H](O)[C@@H](C)/C=C(/C)[C@H](OC(N)=O)[C@@H](OC)/C=C\C=C(\C)C(=O)N2 and report
label 1

// repeat for CC(C)(C)NC(=O)c1cncn1C1CCN(c2ccc(-c3nnc(C(F)(F)F)o3)cn2)CC1 and report
label 1

// repeat for O=C1Nc2nc(-c3c(O)cccc3OCC3CC3)cc([C@@H]3CCCNC3)c2CO1 and report
label 1

// repeat for CC(=NNC(=O)c1cccc(S(=O)(=O)N2CCOCC2)c1)c1cc(Cl)ccc1O and report
label 1

// repeat for Cc1cc(C)c(CNC(=O)c2cc(-c3ccc(N4CCN(C)CC4)nc3)cc3c2c(C)cn3C(C)C)c(=O)[nH]1 and report
label 1

// repeat for C=C1CC[C@@H]2[C@](C)(CO)[C@H](O)CC[C@@]2(C)[C@@H]1C/C=C1/C(=O)OC[C@H]1O and report
label 1

// repeat for CN1CCN(c2ccc3nc(-c4c(N)c5c(F)cccc5[nH]c4=O)[nH]c3c2)CC1 and report
label 1

// repeat for C[C@@H]1C[C@H](N)C[C@H](c2ccncc2NC(=O)c2ccc(F)c(-c3c(F)cccc3F)n2)C1 and report
label 1

// repeat for N#Cc1c(N(CC(=O)O)CC(=O)O)sc(C(=O)O)c1CC(=O)O and report
label 0
